Where do the numbers come from? From ChEMBL document CHEMBL4028874.

# maps each entry to its MIC
test system: Acinetobacter baumannii; test: Antibacterial activity against Acinetobacter baumannii ATCC 17961 after 18 hrs by broth microdilution method; format: functional; settings: ATCC 17961, 18 h
Experimental endpoint: MIC (µM)

| Given smiles | Experimental endpoint | Qualifier symbol | Numeric value |
| --- | --- | --- | --- |
| COC(=O)CSC[C@H]1[C@H](NC(=O)Cc2ccccc2)C(=O)N1S(=O)(=O)O | MIC | > | 50 |
| CC(C)(O/N=C(\C(=O)N[C@@H]1C(=O)N(S(=O)(=O)O)[C@H]1CSCCNC(=O)CN(CCCCNC(=O)c1cccc(O)c1O)C(=O)c1cccc(O)c1O)c1cnc(N)s1)C(=O)O | MIC | = | 0.2 |
| CO/N=C(\C(=O)N[C@@H]1C(=O)N(S(=O)(=O)O)[C@H]1CSCCN)c1cnc(N)s1 | MIC | = | 50 |
| CC(C)(O/N=C(\C(=O)N[C@@H]1C(=O)N(S(=O)(=O)O)[C@H]1CSCCN)c1cnc(N)s1)C(=O)O | MIC | > | 50 |

====

tested on: Acinetobacter baumannii; experiment: Antibacterial activity against Acinetobacter baumannii ATCC BAA 1797 after 18 hrs by broth microdilution method; format: functional; conditions: ATCC BAA 1797, 18 h

| Given smiles | Unit string | Qualifier symbol | MIC |
| --- | --- | --- | --- |
| COC(=O)CSC[C@H]1[C@H](NC(=O)Cc2ccccc2)C(=O)N1S(=O)(=O)O | µM | > | 50 |
| CC(C)(O/N=C(\C(=O)N[C@@H]1C(=O)N(S(=O)(=O)O)[C@H]1CSCCNC(=O)CN(CCCCNC(=O)c1cccc(O)c1O)C(=O)c1cccc(O)c1O)c1cnc(N)s1)C(=O)O | µM | = | 0.4 |
| CO/N=C(\C(=O)N[C@@H]1C(=O)N(S(=O)(=O)O)[C@H]1CSCCN)c1cnc(N)s1 | µM | > | 50 |
| CC(C)(O/N=C(\C(=O)N[C@@H]1C(=O)N(S(=O)(=O)O)[C@H]1CSCCN)c1cnc(N)s1)C(=O)O | µM | = | 50 |

====

# maps each entry to its MIC
tested on: Pseudomonas aeruginosa; experiment: Antibacterial activity against clinical isolates of Pseudomonas aeruginosa ISR-14-003 after 18 hrs by broth microdilution method; type: functional; details: ISR-14-003, 18 h

| Compound | MIC |
| --- | --- |
| COC(=O)CSC[C@H]1[C@H](NC(=O)Cc2ccccc2)C(=O)N1S(=O)(=O)O | > 50 µM |
| CC(C)(O/N=C(\C(=O)N[C@@H]1C(=O)N(S(=O)(=O)O)[C@H]1CSCCNC(=O)CN(CCCCNC(=O)c1cccc(O)c1O)C(=O)c1cccc(O)c1O)c1cnc(N)s1)C(=O)O | 1.6 µM |
| CC(C)(O/N=C(\C(=O)N[C@@H]1C(=O)N(S(=O)(=O)O)[C@H]1CSCCN)c1cnc(N)s1)C(=O)O | > 50 µM |
| CO/N=C(\C(=O)N[C@@H]1C(=O)N(S(=O)(=O)O)[C@H]1CSCCN)c1cnc(N)s1 | > 50 µM |
| C[C@]1(Cn2ccnn2)[C@H](C(=O)O)N2C(=O)C[C@H]2S1(=O)=O [TAZOBACTAM] | > 20 mg/L |

====

# maps each entry to its MIC
test system: Staphylococcus aureus; test: Antibacterial activity against Staphylococcus aureus SG 511 after 18 hrs by broth microdilution method; format: functional; conditions: SG 511, 18 h
Experimental endpoint: MIC

| Compound | Measurement target | Experimental endpoint | Result |
| --- | --- | --- | --- |
| CC(C)(O/N=C(\C(=O)N[C@@H]1C(=O)N(S(=O)(=O)O)[C@H]1CSCCNC(=O)CN(CCCCNC(=O)c1cccc(O)c1O)C(=O)c1cccc(O)c1O)c1cnc(N)s1)C(=O)O | Staphylococcus aureus | MIC | > 50 µM |
| CC(C)(O/N=C(\C(=O)N[C@@H]1C(=O)N(S(=O)(=O)O)[C@H]1CSCCN)c1cnc(N)s1)C(=O)O | Staphylococcus aureus | MIC | > 50 µM |
| CO/N=C(\C(=O)N[C@@H]1C(=O)N(S(=O)(=O)O)[C@H]1CSCCN)c1cnc(N)s1 | Staphylococcus aureus | MIC | > 50 µM |
| COC(=O)CSC[C@H]1[C@H](NC(=O)Cc2ccccc2)C(=O)N1S(=O)(=O)O | Staphylococcus aureus | MIC | > 50 µM |
| C[C@H]1[C@H](NC(=O)/C(=N\OC(C)(C)C(=O)O)c2csc(N)n2)C(=O)N1S(=O)(=O)O [AZTREONAM] | Staphylococcus aureus | MIC | > 50 µM |

====

# maps each entry to its MIC
test system: Pseudomonas aeruginosa; assay: Antibacterial activity against Pseudomonas aeruginosa KW799/wt after 18 hrs by broth microdilution method; type: functional

| Compound | Unit string | Qualifier symbol | MIC |
| --- | --- | --- | --- |
| CC(C)(O/N=C(\C(=O)N[C@@H]1C(=O)N(S(=O)(=O)O)[C@H]1CSCCNC(=O)CN(CCCCNC(=O)c1cccc(O)c1O)C(=O)c1cccc(O)c1O)c1cnc(N)s1)C(=O)O | µM | = | 0.4 |
| COC(=O)CSC[C@H]1[C@H](NC(=O)Cc2ccccc2)C(=O)N1S(=O)(=O)O | µM | > | 50 |
| C[C@H]1[C@H](NC(=O)/C(=N\OC(C)(C)C(=O)O)c2csc(N)n2)C(=O)N1S(=O)(=O)O [AZTREONAM] | µM | = | 1.6 |
| CO/N=C(\C(=O)N[C@@H]1C(=O)N(S(=O)(=O)O)[C@H]1CSCCN)c1cnc(N)s1 | µM | > | 50 |
| CC(C)(O/N=C(\C(=O)N[C@@H]1C(=O)N(S(=O)(=O)O)[C@H]1CSCCN)c1cnc(N)s1)C(=O)O | µM | > | 50 |

====

# maps each entry to its MIC
test system: Pseudomonas aeruginosa; test: Antibacterial activity against Pseudomonas aeruginosa ARC 3502 after 18 hrs by broth microdilution method; format: functional; conditions: ARC 3502, 18 h

| Given smiles | MIC |
| --- | --- |
| CO/N=C(\C(=O)N[C@@H]1C(=O)N(S(=O)(=O)O)[C@H]1CSCCN)c1cnc(N)s1 | > 50 µM |
| CC(C)(O/N=C(\C(=O)N[C@@H]1C(=O)N(S(=O)(=O)O)[C@H]1CSCCN)c1cnc(N)s1)C(=O)O | ≥ 50 µM |
| C[C@]1(Cn2ccnn2)[C@H](C(=O)O)N2C(=O)C[C@H]2S1(=O)=O | > 10 µg/mL |
| CC(C)(O/N=C(\C(=O)N[C@@H]1C(=O)N(S(=O)(=O)O)[C@H]1CSCCNC(=O)CN(CCCCNC(=O)c1cccc(O)c1O)C(=O)c1cccc(O)c1O)c1cnc(N)s1)C(=O)O | > 50 µM |
| COC(=O)CSC[C@H]1[C@H](NC(=O)Cc2ccccc2)C(=O)N1S(=O)(=O)O | > 50 µM |

====

# maps each entry to its MIC
test system: Acinetobacter baumannii; assay: Antibacterial activity against carbapenemase producing Acinetobacter baumannii ATCC 17978-PNT-165 after 18 hrs by broth microdilution method; assay type: functional; details: ATCC 17978-PNT-165, 18 h

| Compound | Unit string | Qualifier symbol | MIC |
| --- | --- | --- | --- |
| C[C@H]1[C@H](NC(=O)/C(=N\OC(C)(C)C(=O)O)c2csc(N)n2)C(=O)N1S(=O)(=O)O [AZTREONAM] | µM | = | 12.5 |
| COC(=O)CSC[C@H]1[C@H](NC(=O)Cc2ccccc2)C(=O)N1S(=O)(=O)O | µM | > | 50 |
| CC(C)(O/N=C(\C(=O)N[C@@H]1C(=O)N(S(=O)(=O)O)[C@H]1CSCCNC(=O)CN(CCCCNC(=O)c1cccc(O)c1O)C(=O)c1cccc(O)c1O)c1cnc(N)s1)C(=O)O | µM | = | 0.4 |
| CO/N=C(\C(=O)N[C@@H]1C(=O)N(S(=O)(=O)O)[C@H]1CSCCN)c1cnc(N)s1 | µM | = | 50 |
| CC(C)(O/N=C(\C(=O)N[C@@H]1C(=O)N(S(=O)(=O)O)[C@H]1CSCCN)c1cnc(N)s1)C(=O)O | µM | = | 50 |

====

test system: Acinetobacter baumannii; assay: Antibacterial activity against clinical isolates of Acinetobacter baumannii ARC 5079 after 18 hrs by broth microdilution method; format: functional; details: ARC 5079, 18 h

| Given smiles | MIC |
| --- | --- |
| C[C@]1(Cn2ccnn2)[C@H](C(=O)O)N2C(=O)C[C@H]2S1(=O)=O | > 10 µg/mL |
| COC(=O)CSC[C@H]1[C@H](NC(=O)Cc2ccccc2)C(=O)N1S(=O)(=O)O | > 50 µM |
| CC(C)(O/N=C(\C(=O)N[C@@H]1C(=O)N(S(=O)(=O)O)[C@H]1CSCCN)c1cnc(N)s1)C(=O)O | > 50 µM |
| CC(C)(O/N=C(\C(=O)N[C@@H]1C(=O)N(S(=O)(=O)O)[C@H]1CSCCNC(=O)CN(CCCCNC(=O)c1cccc(O)c1O)C(=O)c1cccc(O)c1O)c1cnc(N)s1)C(=O)O | 1.6 to 25 µM |
